System: NCI-H522
Experiment: NCI tumour cell line growth inhibition, 48 h
Active and inactive are the calls of the source. No stated cut-off is given here; in the data, active = GI50 up to about 1.1 µM and inactive = higher.
Hello, when you answer, please use one of the following outcomes: Y for active, N for inactive

Past entries and their recorded results:
compound=O=C(NNC(=S)Nc1ccccc1)C12CC3CC(CC(C3)C1)C2 group_label=N
compound=Clc1ccc(CCNCCNC2(c3cc4ccccc4s3)CCCCC2)cc1Cl group_label=N
compound="COC1(OC)CCC2C1C1CCC(OC)(OC)C21 (stereo unspecified)" group_label=N
compound=O=C(/C=C/c1ccc(OCc2ccccc2)cc1)NCc1ccc(C(=O)NCc2ccccc2)cc1 group_label=N
compound="COC1CC(OC(=O)c2ccccc2)C(OC(=O)c2ccccc2)C(C)O1 (stereo unspecified)" group_label=N
compound=COc1ccc(C)cc1-c1ccc(-c2cc(C)ccc2OC)o1 group_label=N

[Q] # outcome recorded in this test, key = O=[N+]([O-])c1ccc(N2N=C(c3ccc(NCc4nc5ccccc5[nH]4)cc3)CC2c2ccco2)cc1 (stereo unspecified)
[A] N

[Q] # outcome recorded in this test, key = C[C@]12Cc3cn[nH]c3C(=O)C1CC[C@@H]1C2CC[C@@]2(C)C1CC[C@@H]2O (stereo partly specified)
[A] N

[Q] # outcome recorded in this test, key = `Cc1c(C)c(C)c(-n2c(=O)n(C)c(=O)n2-c2cc(C(C)(C)C)cc(C(C)(C)C)c2O)c(C)c1C`
[A] N

[Q] # outcome recorded in this test, key = `CCOC(=O)c1ccc2nc(NC(=O)COC(=O)CSc3nc(C)cc(C)n3)sc2c1`
[A] N
